The reported measurements were obtained from patent US20190352423A1.

tested_target: T1, recombinant human CD63 second extracellular domain (Ala 103-Val 203) fused with a polyhistidine tag at the … (human, UniProt P08962 103-203)
T1 construct: range 103-203; Bought from Creative BioMart; also called human His-tagged CD63; soluble CD63
T1 sequence (looked up): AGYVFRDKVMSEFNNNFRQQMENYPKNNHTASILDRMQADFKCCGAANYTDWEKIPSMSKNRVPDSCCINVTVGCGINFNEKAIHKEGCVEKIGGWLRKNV
assay: BLI (Octet HTX), IgG on anti-human Fc sensors, His-tagged CD63 as analyte, 30 C
quantity_kind: pKd
Note on units: pKd is unitless, being -log10 of a concentration expressed in mol/L.

Consider the reported pKd for these binders:
Param item = anti-CD63-LN54H (antibody, V domains shown) VH: EVQLQQSGPELVKPGASVKMSCKASGYTFTSYVMHWVRQTPGQGLEWIGYITPYNDGTKYNEKFKGKATLTSDKSSSTAYMELSSLTSEDSAVYYCVGGDNYYYAMDYWGQGTSVTVSA VL: NIMVTQSPSSLAVSAGEKVTMSCKSSQSVLYSSHQKNYLAWYQQKPGQSPKLLIYWASTRVSGVPDRFTGSGSGTDFTLTISRVQAEDLAVYYCHQYFSSFTFGSGTKLEIKR ; retrieve measured pKd.
8.70

Param item = IgG1-CD63 affinity variant Y127 (antibody, V domains shown, As m1 with one histidine substitution) VH: EVQLQQSGPELVKPGASVKMSCKASGYTFTSYVMHWVRQTPGQGLEWIGYITPYNDGTKYNEKFKGKATLTSDKSSSTAYMELSSLTSEDSAVYYCVGGDNYYYAMDHWGQGTSVTVSA VL: NIMVTQSPSSLAVSAGEKVTMSCKSSQSVLYSSNQKNYLAWYQQKPGQSPKLLIYWASTRVSGVPDRFTGSGSGTDFTLTISRVQAEDLAVYYCHQYFSSFTFGSGTKLEIKR ; retrieve measured pKd.
9.27

Param item = IgG1-CD63 affinity variant P72H (antibody, V domains shown) VH: EVQLQQSGPELVKPGASVKMSCKASGYTFTSYVMHWVRQTPGQGLEWIGYITHYNDGTKYNEKFKGKATLTSDKSSSTAYMELSSLTSEDSAVYYCVGGDNYYYAMDYWGQGTSVTVSA VL: NIMVTQSPSSLAVSAGEKVTMSCKSSQSVLYSSNQKNYLAWYQQKPGQSPKLLIYWASTRVSGVPDRFTGSGSGTDFTLTISRVQAEDLAVYYCHQYFSSFTFGSGTKLEIKR ; retrieve measured pKd.
8.48

Now let's try a different one.
Param item = IgG1-CD63 affinity variant G76H (antibody, V domains shown, As m1 with one histidine substitution) VH: EVQLQQSGPELVKPGASVKMSCKASGYTFTSYVMHWVRQTPGQGLEWIGYITPYNDHTKYNEKFKGKATLTSDKSSSTAYMELSSLTSEDSAVYYCVGGDNYYYAMDYWGQGTSVTVSA VL: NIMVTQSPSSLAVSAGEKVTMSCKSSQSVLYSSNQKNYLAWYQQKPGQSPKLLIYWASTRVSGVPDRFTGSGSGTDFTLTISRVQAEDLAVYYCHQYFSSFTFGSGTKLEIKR ; retrieve measured pKd.
7.77
